Measured ABTS IC50 values are reported for all entries that follow.
# method-summary: ABTS radical scavenging assay
# Format: biochemical
# assay-setup: main flavonoids and positive controls (Table 5)
Marks after values point to notes of the source that are not given here.

[
  {
    "compound": "Cc1cc(C(C)(C)C)c(O)c(C(C)(C)C)c1 [BHT, Butylated hydroxytoluene, reference compound]",
    "assay-metric": "ABTS IC50",
    "measured": "5.72 ± 0.10 ^h,i μg/mL"
  },
  {
    "compound": "O=C1O[C@H]([C@@H](O)CO)C(O)=C1O [VC, ascorbic acid, reference compound]",
    "assay-metric": "ABTS IC50",
    "measured": "3.79 ± 0.04 ^j μg/mL"
  },
  {
    "compound": "O=c1cc(-c2ccc(O)cc2)oc2cc(O[C@@H]3O[C@H](CO)[C@@H](O)[C@H](O)[C@H]3O[C@@H]3OC[C@](O)(CO)[C@H]3O)cc(O)c12 [Apiin]",
    "assay-metric": "ABTS IC50",
    "measured": "1055.33 ± 24.68 ^a μg/mL"
  }
]

[in] Reported ABTS IC50 for COc1cc(-c2cc(=O)c3c(O)cc(O)cc3o2)ccc1O [Chrysoeriol] : what is it?
[out] 16.69 ± 0.55 ^f μg/mL
